- Test system: LOX IMVI melanoma
- assay_details: NCI-60 one-dose screen, 48 h (100 = growth as untreated, 0 = no growth, -100 = all killed)
- stated_conditions: 10 µM unless noted
This is part of a sample that, as a whole, favours compounds with a hit. Of some 83,000 tested, about 20% had one in any assay.
// No strictly below 80% in growth; Yes otherwise

Assess whether reported growth for CC1=NC(=S)NC(c2ccccc2)/C1=C1/CC(c2ccccc2O)NN1 (stereo unspecified) sits at 80% or higher. Yes

Assess whether reported growth for CCOC(=O)CC1CSC(N/N=C(/C)c2cccc(C(F)(F)F)c2)=N1 (stereo unspecified) sits at 80% or higher. Yes

Assess whether reported growth for `CN(C)c1ccc(/C=N/NC(=O)CSc2nc3sc4c(c3c(=O)n2-c2ccccc2)CCCCC4)cc1` sits at 80% or higher. No
